Hello, the source for this data is patent US4532255A, in case you need it.

TGT: Trypsin (Bos taurus)
Sequence (P00760 24-246): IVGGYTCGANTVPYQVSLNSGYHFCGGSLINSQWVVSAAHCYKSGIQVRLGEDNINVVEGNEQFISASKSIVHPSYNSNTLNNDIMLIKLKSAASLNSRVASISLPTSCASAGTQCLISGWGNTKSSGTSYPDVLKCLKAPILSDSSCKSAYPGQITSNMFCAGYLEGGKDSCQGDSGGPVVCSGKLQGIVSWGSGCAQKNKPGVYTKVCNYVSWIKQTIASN
// NB: equality with 2000 nM counts as f; only IC50 strictly below is t

- CC(C)(C)c1ccc(C(=O)Oc2ccc3cc(C(=N)N)ccc3c2)cc1: t
- Cc1ccc(C(=O)Oc2ccc3cc(C(=N)N)ccc3c2)cc1: t
- N=C(N)c1ccc2cc(OC(=O)c3ccc(Br)cc3)ccc2c1: f
- N=C(N)c1ccc2cc(OC(=O)CCc3ccc(N)cc3)ccc2c1: f
- CCCCOc1ccc(C(=O)Oc2ccc3cc(C(=N)N)ccc3c2)cc1: t
- N=C(N)c1ccc2cc(OC(=O)c3ccc(O)cc3)ccc2c1 [Compound 11, 6-amidino-2-naphthyl 4-hydroxybenzoate]: t
- N=C(N)c1ccc2cc(OC(=O)c3ccccc3)ccc2c1 [Compound 1, 6-amidino-2-naphthyl benzoate]: f
- N=C(N)c1ccc2cc(OC(=O)c3ccc(Cl)cc3)ccc2c1: f
- N=C(N)c1ccc2cc(OC(=O)C=Cc3ccc([N+](=O)[O-])cc3)ccc2c1 [Compound 62, 6-amidino-2-naphthyl 4-nitrocinnamate]: f
- COc1ccccc1OCC(=O)Oc1ccc2cc(C(=N)N)ccc2c1: f
- N=C(N)c1ccc2cc(OC(=O)c3ccc([N+](=O)[O-])cc3)ccc2c1 [Compound 18, 6-amidino-2-naphthyl 4-nitrobenzoate]: f

----------
TGT: Trypsin (Bos taurus)
// NB: equality with 0.6 µM counts as 0; only IC50 strictly below is 1

• CC(=O)Oc1ccc(C(=O)Oc2ccc3cc(C(=N)N)ccc3c2)cc1 = 1
• N=C(N)c1ccc2cc(OC(=O)c3ccc(CN)cc3)ccc2c1 = 0
• N=C(N)c1ccc2cc(OC(=O)c3ccc(C=O)cc3)ccc2c1 = 0
• N=C(N)c1ccc2cc(O)ccc2c1 [6-amidino-2-naphthol, reference compound] = 0
• N=C(N)c1ccc2cc(OC(=O)C=Cc3cccc(C(F)(F)F)c3)ccc2c1 = 0
• CN(C)c1ccc(C(=O)Oc2ccc3cc(C(=N)N)ccc3c2)cc1 = 1
• N=C(N)c1ccc2cc(OC(=O)c3ccc(F)cc3)ccc2c1 = 0

----------
Tested on: complement mediated hemolysis
MEASUREMENT DESCRIPTION: Inhibition of complement mediated hemolysis
Assay type: cell-based
MEASUREMENT PARAMETERS: 1 × 10^-4
MEASURED PARAMETER: Inhibition of complement mediated hemolysis (%)

* N=C(N)c1ccc2cc(OC(=O)c3ccc(F)cc3)ccc2c1 | 98
* N=C(N)c1ccc2cc(OC(=O)c3ccccc3)ccc2c1 [Compound 1, 6-amidino-2-naphthyl benzoate] | 100
* CC(=O)Oc1ccc(CCC(=O)Oc2ccc3cc(C(=N)N)ccc3c2)cc1 | 49
* N=C(N)c1ccc2cc(OC(=O)c3ccc([N+](=O)[O-])cc3)ccc2c1 [Compound 18, 6-amidino-2-naphthyl 4-nitrobenzoate] | 92
* N=C(N)c1ccc2cc(OC(=O)c3ccc4c(c3)OCO4)ccc2c1 | 97
* N=C(N)c1ccc2cc(OC(=O)c3ccc(Br)cc3)ccc2c1 | 98
* N=C(N)c1ccc2cc(OC(=O)c3cccc(C(F)(F)F)c3)ccc2c1 | 75
* N=C(N)c1ccc2cc(OC(=O)c3ccc(CN)cc3)ccc2c1 | 100
